# System: MOLT-4 leukemia
# PROTOCOL: NCI tumour cell line growth inhibition, 48 h
ATTRIBUTE MEASURED: TGI

>>> print(df.to_string())
                                   molecule     result
0  CC(=O)NNc1nc(C)c(C(=O)/C=C/c2ccc(Cl)cc2)s1   > 100 µM
1  C#CC1(O)CCC2[C@@H]3CCc4cc(Oc5nc(F)nc(-c6c7ccccc7c(SCC)n6CCC)n5)ccc4C3CC[C@@]21C (some centres undefined)   > 100 µM
2  COc1cc2c(cc1Oc1c(Oc3c(O)c(OC)cc4c3C(CC(C)C)N(C)CC4)c(OC)cc3c1C(CC(C)C)N(C)CC3)C(CC(C)C)N(C)CC2 (centres undefined)    4.05 µM
3  CCOC(=O)C(=CNC(=S)N=Nc1c(O)[nH]c2ccccc12)C(=O)OCC   > 100 µM
4  COc1cc(C2C3=C(CCCC3=O)N(c3ccc(C)cc3)C3=C2C(=O)CCC3)c([N+](=O)[O-])cc1OC   > 100 µM
5  CCOc1ccc(C(C)c2cc3c(cc2OC)OCO3)cc1 (centres undefined)      15 µM
6                     CC(C)c1cccc(O)c(=O)c1  > 46.9 µM
7  c1ccc(Nc2nn3c(CCCCCCCCc4nnc5sc(Nc6ccccc6)nn45)nnc3s2)cc1    41.7 µM
8  CCOC(=O)C(Cc1ccccc1)NC(=O)c1[nH]cnc1/N=N/N(C)C (centres undefined)   > 100 µM

====

# Test system: TK-10 renal
# PROTOCOL: NCI tumour cell line growth inhibition, 48 h
ATTRIBUTE MEASURED: TGI

                                   molecule  attribute_measured     result
0      COc1cccc2cc(C(=O)Nc3ccccc3)c(=N)oc12                 TGI   > 100 µM
1  COC(=O)CCNc1c2ccccc2nc2cccc([N+](=O)[O-])c12                 TGI  0.0312 µM
2  NC(=O)c1cccc(OCC(O)CO)c1 (stereo not given)                 TGI   > 100 µM
3           O=C(C#Cc1ccccc1)C1=Cc2ccccc2OC1                 TGI    3.58 µM
4             N/C(=N\Nc1ccc(Cl)cc1)c1cnccn1                 TGI   > 100 µM
5  C[C@]12CC[C@H]3[C@@H](CC4SC(N)=NC45C/C(=N/NC(N)=O)CC[C@]35C)[C@@H]1CCC2=O (stereo not given in full)                 TGI    5.45 µM
6        Nn1c(=O)[nH]c2ncn(Cc3ccccc3)c2c1=O                 TGI   > 100 µM
7  Cn1nc(C(F)(F)F)c(-c2cc(C(F)(F)F)cc(C(F)(F)F)c2)c1-c1ccc(OCc2ccc(Cl)cc2)cc1O                 TGI    11.1 µM
8  COC(=O)C(Cc1c[nH]c2ccccc12)NP(=O)(O)OCC1OC(n2cc(Br)c(=O)[nH]c2=O)CC1O (stereo not given)                 TGI   > 100 µM
9  C1CN(P2(N3CC3)=NP(N3CC3)(N3CC3)=NP(N3CC3)(N3CC3)=N2)CCO1 (stereo not given)                 TGI   > 100 µM

====

# Tested on: BT-549 breast
# PROTOCOL: NCI tumour cell line growth inhibition, 48 h

COMPOUND	TGI
CCOC1NC(=O)Oc2cc3ccccc3cc21 (stereo not drawn)	> 100 µM
COc1ccc2c(c1)NC1(CCN(CCCC(=O)c3ccc(F)cc3)CC1)N=N2	74.7 µM
O=C1C=Cc2c1ccc1ccccc21	89.9 µM
CC(C)=CC(=O)N[C@H]1CC[C@]2(C)C3CC[C@]4(C)C(C(C)N(C)C)=CCC4C3CCC2[C@H]1O (stereo partly drawn)	20.8 µM
C/C=C(\C)C(=O)O[C@@H]1CC(C)(C)CC2C3=CCC4[C@]56CC[C@](O)(OC5)C(C)(C)C6CC[C@@]4(C)C3(C)CC[C@]21C(=O)O (stereo partly drawn)	> 100 µM
Cc1nc2ccc(F)cc2c(Cl)c1CCCl	> 100 µM
COC1=C(C)C(=O)C2=C(C1=O)C1C3CC4=C(C(=O)C(OC)=C(C)C4=O)C(CNC(=O)C(C)O)N3C(C#N)C(C2)N1C (stereo not drawn)	< 0.01 µM
CC(=O)O[C@H]1C(=O)[C@@]2(C)[C@H]([C@H](OC(=O)c3ccccc3)[C@]3(O)C[C@H](OC(=O)[C@H](OC(=O)OC[C@H]4COC(C)(C)O4)[C@@H](NC(=O)c4ccccc4)c4ccccc4)C(C)=C1C3(C)C)[C@]1(OC(C)=O)CO[C@@H]1C[C@@H]2O	> 33.3 µM

====

# System: MOLT-4 leukemia
# PROTOCOL: NCI tumour cell line growth inhibition, 48 h; in the data active means GI50 below about 0.43 µM; inactive means the rest
Outcomes: T = active, F = inactive

COMPOUND	STUDY SYSTEM	ASSIGNED CATEGORY
N#C/C(=N\Nc1ccccc1)C(=O)Nc1cc(-c2ccccc2)nn1-c1ccccc1	MOLT-4 leukemia	F
CC(=O)O[C@H]1C(=O)[C@@]2(C)[C@H]([C@H](OC(=O)c3ccccc3)[C@]3(O)C[C@H](OC(=O)[C@H](OC(=O)OC[C@H]4COC(C)(C)O4)[C@@H](NC(=O)c4ccccc4)c4ccccc4)C(C)=C1C3(C)C)[C@]1(OC(C)=O)CO[C@@H]1C[C@@H]2O	MOLT-4 leukemia	T
COc1ccc(/C(C#N)=C/c2cc(OC)c(OC)c(OC)c2)cc1	MOLT-4 leukemia	F
CC(C)C(=O)c1c(C(F)(F)F)n([O-])c2cc(F)c(F)cc2[n+]1=O	MOLT-4 leukemia	T
Cn1c(-c2ccccc2)c(/C=C/C2=[N+](C)c3ccccc3C2(C)C)c2ccccc21	MOLT-4 leukemia	F
CCCCCCCCCCCCCCCCOP(=O)([O-])OCC[N+](C)(C)C	MOLT-4 leukemia	F
COC(=O)CCNc1c2ccccc2nc2cccc([N+](=O)[O-])c12	MOLT-4 leukemia	T
O=c1oc2cc(OC/C(=N/O)c3ccc(F)cc3)ccc2c2ccccc12	MOLT-4 leukemia	F
COC1=CC(c2ccc[nH]2)=N/C1=C\c1[nH]c(C)c(CC(=O)OCc2ccccc2)c1C	MOLT-4 leukemia	T
Cc1ccc2c(c1)C(=O)c1c-2c(OCCCN(C)C)nc2ccccc12	MOLT-4 leukemia	F

====

# Tested on: HT29 colon
# PROTOCOL: NCI tumour cell line growth inhibition, 48 h
Recorded TGI for the following molecules
ATTRIBUTE MEASURED: TGI (µM)

                                   molecule  attribute_measured  comparison_sign  numeric_readout
0  COc1ccc(-c2ncn(C[Si](C)(C)C)c2-c2ccc(OC)cc2)cc1                 TGI                =             10.8
1  O=C(CN1CCCCC1)Nc1ccc2c(c1)C1Oc3ccccc3CC1CO2 (stereo not given)                 TGI                =             29.1
2    O=C(O)/C(=C\c1ccc(O)cc1)c1cccc2ccccc12                 TGI                >              100
3  C=CC(=O)N1C/C(=C\c2ccc([N+](=O)[O-])cc2)C(=O)/C(=C/c2ccc([N+](=O)[O-])cc2)C1                 TGI                <            0.038
4                 Nc1ccc2ccc(N3CCNCC3)nc2n1                 TGI                >              100

====

# System: NCI/ADR-RES ovarian
# PROTOCOL: NCI tumour cell line growth inhibition, 48 h; in the data active means GI50 below about 0.43 µM; inactive means the rest
Outcomes: active, inactive

>>> df
                                   molecule  assigned_category
0  CC(=O)/C=C/C1=C(c2csc3ccccc23)c2ccccc2CC1           inactive
1  C=C1C(=O)O[C@H]2[C@H]1CC/C(COC(=O)OC/C1=C/CC[C@@]3(C)O[C@H]3[C@H]3OC(=O)[C@@H](CN(C)C)[C@@H]3CC1)=C\CC[C@@]1(C)O[C@@H]21           inactive
2  Cc1cc(OCCOCCC(F)(F)P(=O)(O)O)ccc1CCc1cnc2c(N)nc3cc(CCC(=O)O)ccc3c2c1           inactive
3  CCC1(OC(=O)CN)C(=O)OCc2c1cc1n(c2=O)Cc2cc3ccccc3nc2-1 (stereo unspecified)             active
4  O=C1C(=O)c2ccccc2C(O)=C1CCCc1ccc(C2CCCCC2)cc1           inactive
5         CCCCCCCCCCCCCC[n+]1ccc(C(N)=O)cc1           inactive
